Form field: Fold Improvement over 4A8 WT (one value per entry).
Molecular target: T1, human CXCR2 (human, UniProt P25025 1-360)
T1 construct: also called CXC chemokine receptor 2; hCXCR2
T1 sequence: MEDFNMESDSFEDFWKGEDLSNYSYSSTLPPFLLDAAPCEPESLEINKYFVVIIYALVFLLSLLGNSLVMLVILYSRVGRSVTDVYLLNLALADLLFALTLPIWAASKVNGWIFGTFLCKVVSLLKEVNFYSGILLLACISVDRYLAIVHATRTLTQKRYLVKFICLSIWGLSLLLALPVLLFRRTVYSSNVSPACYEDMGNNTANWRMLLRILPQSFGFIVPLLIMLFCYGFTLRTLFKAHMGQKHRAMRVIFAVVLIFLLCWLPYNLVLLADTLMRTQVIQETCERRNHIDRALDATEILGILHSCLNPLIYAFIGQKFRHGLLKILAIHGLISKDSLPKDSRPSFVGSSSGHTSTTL
Test: flow cytometry, CXCR2-transfected Expi293F cells

BINDER	Fold Improvement over 4A8 WT / fold
BKO-4A8 combinatorial variant 6b (antibody, human IgG4 S228P, lambda, V domains shown, IgG4 S228P, lambda) VH: EVQLLESGGGLVQPGGSLRLSCAASGFTFSSSTQSWVRQPPGKGLEWVSAISGRGRSTYYADSVKGRFTISRDNSKNTLYLQMNSLRAEDTAVYYCAKQKGYWGQGILVTVSS VL: QSALTQPPSASGSPGQSVTISCIGTSSDVGGYNYVSWYQQHPDKAPKLMIYEVSKRPSGVPDRFSGSKSGNTASLTVSGLQAEDEADYYCSSYAGSNNFGVFGGGTKLTVLG	1
BKO-4A8 combinatorial variant 3c (antibody, human IgG4 S228P, lambda, V domains shown, IgG4 S228P, lambda) VH: EVQLLESGGGLVQPGGSLRLSCAASGFTFSSSTQSWVRQPPGKGLEWVSAISGRGRSTYYADSVKGRFTISRDNSKNTLYLQMNSLRAEDTAVYYCAIQMGYWGQGILVTVSS VL: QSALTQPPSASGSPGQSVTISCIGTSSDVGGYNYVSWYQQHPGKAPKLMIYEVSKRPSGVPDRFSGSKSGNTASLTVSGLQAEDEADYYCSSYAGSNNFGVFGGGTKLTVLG	2

Reference source: patent US20240301076A1
